target: Acetylcholinesterase (Homo sapiens)
Sequence (P22303 whole entry): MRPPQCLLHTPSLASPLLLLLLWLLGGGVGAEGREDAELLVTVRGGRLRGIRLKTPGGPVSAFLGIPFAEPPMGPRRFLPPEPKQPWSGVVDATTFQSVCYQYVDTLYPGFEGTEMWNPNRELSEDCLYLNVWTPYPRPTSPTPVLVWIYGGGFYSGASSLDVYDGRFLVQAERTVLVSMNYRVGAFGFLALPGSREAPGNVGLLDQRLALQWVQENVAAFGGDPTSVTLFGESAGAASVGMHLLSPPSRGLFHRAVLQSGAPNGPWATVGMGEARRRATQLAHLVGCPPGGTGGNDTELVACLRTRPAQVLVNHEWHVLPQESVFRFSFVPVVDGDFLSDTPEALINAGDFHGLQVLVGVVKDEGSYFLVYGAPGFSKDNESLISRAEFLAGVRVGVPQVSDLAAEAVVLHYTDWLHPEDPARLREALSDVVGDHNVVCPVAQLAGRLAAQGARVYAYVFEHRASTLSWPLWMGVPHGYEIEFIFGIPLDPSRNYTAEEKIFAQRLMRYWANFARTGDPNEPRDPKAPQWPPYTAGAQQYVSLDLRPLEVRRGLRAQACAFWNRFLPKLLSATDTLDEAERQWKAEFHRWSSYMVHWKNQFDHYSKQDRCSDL
protocol description: DRUGMATRIX: Acetylcholinesterase enzyme inhibition (substrate: acetylthiocholine)
Format: cell-based, HEK293
reported conditions: hek293; Not Active = under 50% inhibition at 10 µM
readout name: IC50

1. O=C/C=C/c1ccccc1 ... Not Active
2. Cc1c(OCC(F)(F)F)ccnc1C[S+]([O-])c1nc2ccccc2[nH]1 (stereo not drawn) [LANSOPRAZOLE] ... Not Active
3. Cc1cc2c(OCC(CNC(C)(C)C)OC(=O)c3ccccc3)cccc2[nH]1 (stereo not drawn) [BOPINDOLOL] ... Not Active

====

target: Receptor-type tyrosine-protein phosphatase C (Homo sapiens); also: in other assays of this panel Not Active means under 50% inhibition at 10 µM;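 also: inhibition of CD45 enzyme activity measured using DiFMUP as substrate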
Sequence (P08575 whole entry): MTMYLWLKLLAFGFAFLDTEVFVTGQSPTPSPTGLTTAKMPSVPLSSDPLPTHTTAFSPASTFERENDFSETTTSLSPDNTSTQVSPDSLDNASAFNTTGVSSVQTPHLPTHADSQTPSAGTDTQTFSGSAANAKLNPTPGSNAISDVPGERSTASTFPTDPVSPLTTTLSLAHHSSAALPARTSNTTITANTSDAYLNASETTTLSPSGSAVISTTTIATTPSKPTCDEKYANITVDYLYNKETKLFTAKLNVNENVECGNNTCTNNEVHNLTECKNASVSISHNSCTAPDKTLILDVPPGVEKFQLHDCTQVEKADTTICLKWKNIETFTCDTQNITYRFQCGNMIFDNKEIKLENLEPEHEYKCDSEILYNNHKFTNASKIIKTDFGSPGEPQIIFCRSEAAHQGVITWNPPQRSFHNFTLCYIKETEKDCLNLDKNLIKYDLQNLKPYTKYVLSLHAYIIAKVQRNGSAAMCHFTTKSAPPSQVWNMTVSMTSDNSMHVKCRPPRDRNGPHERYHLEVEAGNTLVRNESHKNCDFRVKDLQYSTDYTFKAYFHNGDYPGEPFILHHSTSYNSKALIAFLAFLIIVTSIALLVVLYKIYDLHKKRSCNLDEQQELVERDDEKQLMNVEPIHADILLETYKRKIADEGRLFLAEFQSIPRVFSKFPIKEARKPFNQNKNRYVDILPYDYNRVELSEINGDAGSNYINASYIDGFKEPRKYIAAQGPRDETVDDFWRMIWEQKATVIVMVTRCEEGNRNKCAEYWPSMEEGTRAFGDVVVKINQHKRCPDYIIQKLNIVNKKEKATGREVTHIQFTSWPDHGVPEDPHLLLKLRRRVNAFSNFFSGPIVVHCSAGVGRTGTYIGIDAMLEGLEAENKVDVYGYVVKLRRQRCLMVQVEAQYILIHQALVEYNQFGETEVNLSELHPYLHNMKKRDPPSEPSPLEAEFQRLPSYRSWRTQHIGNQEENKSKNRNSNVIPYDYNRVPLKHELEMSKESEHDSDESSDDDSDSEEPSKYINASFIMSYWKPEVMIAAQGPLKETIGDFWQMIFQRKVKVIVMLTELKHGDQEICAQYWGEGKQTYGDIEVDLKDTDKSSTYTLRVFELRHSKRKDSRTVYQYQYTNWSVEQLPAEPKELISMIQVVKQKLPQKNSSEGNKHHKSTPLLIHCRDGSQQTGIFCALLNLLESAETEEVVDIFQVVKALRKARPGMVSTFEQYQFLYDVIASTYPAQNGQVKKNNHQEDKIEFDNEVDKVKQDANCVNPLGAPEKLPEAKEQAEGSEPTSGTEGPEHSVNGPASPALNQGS
Parameters: species or system Escherichia coli
readout name: IC50

The following molecules have reported results that may help.
1. O=C(Nc1ccc(Br)cc1)c1cc(Br)cc(Br)c1O [TRIBROMSALAN] ... Not Active
2. COC(=O)Nc1nc2ccc(C(=O)c3cccs3)cc2[nH]1 [NOCODAZOLE] ... Not Active
3. CC(C)NCC(O)c1ccc(NS(C)(=O)=O)cc1 (stereo unspecified) [SOTALOL] ... Not Active
4. CC(=O)[C@@]1(O)CC[C@H]2[C@@H]3CCC4=CC(=O)CC[C@]4(C)[C@H]3CC[C@@]21C [HYDROXYPROGESTERONE] ... Not Active
5. CC(C(=O)O)c1ccc2oc(-c3ccc(Cl)cc3)nc2c1 (stereo unspecified) [BENOXAPROFEN] ... Not Active
6. C=CCc1ccc(O)c(OC)c1 [EUGENOL] ... Not Active
7. NCCCC(O)(P(=O)(O)O)P(=O)(O)O [ALENDRONIC ACID] ... Not Active
8. Cn1c(=O)c2[nH]cnc2n(C)c1=O.Cn1c(=O)c2[nH]cnc2n(C)c1=O.NCCN [AMINOPHYLLINE] ... Not Active
9. CC(C)NCC(O)COc1cccc2[nH]ccc12 (stereo unspecified) [PINDOLOL] ... Not Active
10. C[n+]1ccccc1/C=N/O.[Cl-] [PRALIDOXIME CHLORIDE] ... Not Active

Using known records, supply IC50 for CC(C)c1cccc(C(C)C)c1O [PROPOFOL]
Not Active
